MEASUREMENT_LABEL: IC50

Request: Provide IC50, tested on human factor IXa (Homo sapiens (Human)), for Nc1noc2c(N3C[C@@H]4CC[C@H]3[C@@H]4NC(=O)c3ccc(-n4cnnc4C(F)F)cc3Cl)ncc(Cl)c12 (relative stereo) .
Sequence (P00740 227-461): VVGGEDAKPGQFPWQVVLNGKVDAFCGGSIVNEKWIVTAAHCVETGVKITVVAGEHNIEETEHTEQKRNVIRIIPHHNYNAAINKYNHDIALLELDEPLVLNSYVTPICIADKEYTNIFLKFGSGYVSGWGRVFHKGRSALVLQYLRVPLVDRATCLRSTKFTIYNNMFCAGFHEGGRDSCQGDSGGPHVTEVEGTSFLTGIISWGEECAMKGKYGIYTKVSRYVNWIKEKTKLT
Sequence (P00740 47-191 partner): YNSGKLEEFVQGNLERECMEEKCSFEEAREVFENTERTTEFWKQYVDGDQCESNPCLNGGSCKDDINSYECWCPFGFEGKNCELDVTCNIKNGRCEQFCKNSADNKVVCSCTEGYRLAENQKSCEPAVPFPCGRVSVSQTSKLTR
Response: ≤ 100 nM

Request: Answer briefly: IC50 recorded on human factor IXa (Homo sapiens (Human)) for Nc1noc2c(N3C[C@@H]4CC[C@H]3[C@@H]4NC(=O)c3ccc(-n4cnnc4)cc3)ncc(Cl)c12 (relative stereo)
Response: ≤ 100 nM

Request: State measured IC50 of the molecule Cc1cc2c(N)noc2c(N2CC3CCC2C3NC(=O)c2ccc(-n3cnc(C)n3)cc2Cl)n1 (single isomer, unassigned) with human factor IXa (Homo sapiens (Human)).
Response: 100 to 1000 nM

Request: Report IC50 on human factor IXa (Homo sapiens (Human)) for this entry: Cc1ncn(-c2cnc(C(=O)N[C@@H]3[C@H]4CC[C@@H]3N(c3ncc(Cl)c5c(N)noc35)C4)c(Cl)c2)n1 (single isomer, unassigned)
Response: ≤ 100 nM

Request: For human factor IXa (Homo sapiens (Human)), give the measured IC50 of the entry Nc1noc2c(N3C[C@@H]4CC[C@H]3[C@@H]4NC(=O)c3ccc(-c4cncnc4)cc3Cl)ncc(Cl)c12 (relative stereo)
Response: ≤ 100 nM

Request: State recorded IC50 with human factor IXa (Homo sapiens (Human)), entry Cc1ncn(-c2ccc(C(=O)NC3C4CCC3N(c3ncc(Cl)c5c(N)noc35)C4)c(Cl)c2)n1 (single isomer, unassigned) [Example 7.1] , no comment.
Response: ≤ 100 nM
